Test system: PEO-1
Assay: Excess HSA synergy score (sum over dose matrix of excess over highest single agent) (score (summed % response)); higher = less synergy / more antagonism (negative = synergy)
Settings: 72 h; read-out: viability/apoptosis luminescence (CellTiter-Glo or Caspase3-Glo / not stated per table); matrix design: 6x6, 5-fold dilutions (primary screen)
Over roughly 1,500 compounds, “Excess HSA synergy score (sum over dose matrix of excess over highest single agent)” has its median near 43; the lowest 2% begin near -900. The list comes from a sample in which the lowest values are over-represented; it also holds close analogues and randomly drawn compounds.
I'd be grateful if you could share measured Excess HSA synergy score for these entries.
Give bare numbers.

# count of solved cases: 2
Compound: C[C@@H]1CN(Cc2ccc(F)cc2)[C@@H](C)CN1C(=O)c1cc2c(C(=O)C(=O)N(C)C)cn(C)c2cc1Cl [Talmapimod] + CC[C@H](NC(=O)[C@H](C)NC)C(=O)N1C[C@@H](O)C[C@H]1Cc1c(-c2[nH]c3cc(F)ccc3c2C[C@@H]2C[C@H](O)CN2C(=O)[C@H](CC)NC(=O)[C@H](C)NC)[nH]c2cc(F)ccc12 [Birinapant]
Reported: 190
//
Compound: COc1ccc(C(C)=O)c(O)c1 [Paeonol] + CC[C@H](NC(=O)[C@H](C)NC)C(=O)N1C[C@@H](O)C[C@H]1Cc1c(-c2[nH]c3cc(F)ccc3c2C[C@@H]2C[C@H](O)CN2C(=O)[C@H](CC)NC(=O)[C@H](C)NC)[nH]c2cc(F)ccc12 [Birinapant]
Reported: 176

Next item in the queue.
I am curious: what Excess HSA synergy score value has been reported for COc1ccc(C2=N[C@@H](c3ccc(Cl)cc3)[C@@H](c3ccc(Cl)cc3)N2C(=O)N2CCNC(=O)C2)c(OC(C)C)c1 [Nutlin-3] + CC[C@H](NC(=O)[C@H](C)NC)C(=O)N1C[C@@H](O)C[C@H]1Cc1c(-c2[nH]c3cc(F)ccc3c2C[C@@H]2C[C@H](O)CN2C(=O)[C@H](CC)NC(=O)[C@H](C)NC)[nH]c2cc(F)ccc12 [Birinapant] ?
264

* * *

Test system: PEO-1
Assay: Excess HSA synergy score (sum over dose matrix of excess over highest single agent) (score (summed % response)); higher = less synergy / more antagonism (negative = synergy)
Details: 72 h; read-out: viability/apoptosis luminescence (CellTiter-Glo or Caspase3-Glo / not stated per table); matrix design: 6x6, 5-fold dilutions (primary screen)
Where a name gives a salt, the structure may show the parent alone. The full ranking holds about 1,500 compounds; the median of “Excess HSA synergy score (sum over dose matrix of excess over highest single agent)” is about 43, and the lowest 2% start at about -900. The list comes from a sample in which the lowest values are over-represented; it also holds close analogues and randomly drawn compounds.
// returns condition not met unless Excess HSA synergy score is strictly below 70, in which case condition met

Answered cases to consult:
Compound: CN1CCCC(n2nc(Cc3ccc(Cl)cc3)c3ccccc3c2=O)CC1 (stereo unspecified) [Azelastine hydrochloride] + CC[C@H](NC(=O)[C@H](C)NC)C(=O)N1C[C@@H](O)C[C@H]1Cc1c(-c2[nH]c3cc(F)ccc3c2C[C@@H]2C[C@H](O)CN2C(=O)[C@H](CC)NC(=O)[C@H](C)NC)[nH]c2cc(F)ccc12
Label: condition met

Compound: C/C=C1\NC(=O)[C@H]2CSSCC/C=C/[C@H](CC(=O)N[C@H](C(C)C)C(=O)N2)OC(=O)[C@H](C(C)C)NC1=O [Romidepsin] + CC[C@H](NC(=O)[C@H](C)NC)C(=O)N1C[C@@H](O)C[C@H]1Cc1c(-c2[nH]c3cc(F)ccc3c2C[C@@H]2C[C@H](O)CN2C(=O)[C@H](CC)NC(=O)[C@H](C)NC)[nH]c2cc(F)ccc12
Label: condition met

Compound: NC(=O)Nc1cc(-c2cccc(F)c2)sc1C(=O)N[C@H]1CCCNC1 + CC[C@H](NC(=O)[C@H](C)NC)C(=O)N1C[C@@H](O)C[C@H]1Cc1c(-c2[nH]c3cc(F)ccc3c2C[C@@H]2C[C@H](O)CN2C(=O)[C@H](CC)NC(=O)[C@H](C)NC)[nH]c2cc(F)ccc12
Label: condition not met

Compound: CN(C)/[N+]([O-])=N/Oc1cc(ON[N+](=O)N2CCN(C(=O)c3cc(Cc4n[nH]c(=O)c5ccccc45)ccc3F)CC2)c([N+](=O)[O-])cc1[N+](=O)[O-] + CC[C@H](NC(=O)[C@H](C)NC)C(=O)N1C[C@@H](O)C[C@H]1Cc1c(-c2[nH]c3cc(F)ccc3c2C[C@@H]2C[C@H](O)CN2C(=O)[C@H](CC)NC(=O)[C@H](C)NC)[nH]c2cc(F)ccc12
Label: condition not met

Switching to the query record.
For this compound, is Excess HSA synergy score lower than 70? Cn1cc(-c2ccc3nnc(C(F)(F)c4ccc5ncccc5c4)n3n2)cn1 + CC[C@H](NC(=O)[C@H](C)NC)C(=O)N1C[C@@H](O)C[C@H]1Cc1c(-c2[nH]c3cc(F)ccc3c2C[C@@H]2C[C@H](O)CN2C(=O)[C@H](CC)NC(=O)[C@H](C)NC)[nH]c2cc(F)ccc12
condition met

* * *

Test system: PEO-1
Experiment: Excess HSA synergy score (sum over dose matrix of excess over highest single agent) (score (summed % response)); higher = less synergy / more antagonism (negative = synergy)
Details: 72 h; read-out: viability/apoptosis luminescence (CellTiter-Glo or Caspase3-Glo / not stated per table); matrix design: 6x6, 5-fold dilutions (primary screen)
Over roughly 1,500 compounds, “Excess HSA synergy score (sum over dose matrix of excess over highest single agent)” has its median near 43; the lowest 2% begin near -900. Shown is part of a subset that was picked to be rich in the lowest values.
// returns label 0 unless Excess HSA synergy score is strictly below -20, in which case label 1

Answered cases to consult:
Molecule: O=C(/C=C/c1cccc(S(=O)(=O)Nc2ccccc2)c1)NO [Belinostat] + CC[C@H](NC(=O)[C@H](C)NC)C(=O)N1C[C@@H](O)C[C@H]1Cc1c(-c2[nH]c3cc(F)ccc3c2C[C@@H]2C[C@H](O)CN2C(=O)[C@H](CC)NC(=O)[C@H](C)NC)[nH]c2cc(F)ccc12
Label: label 1
//
Molecule: COc1cccc2c1C(=O)c1c(O)c3c(c(O)c1C2=O)C[C@@](O)(C(=O)CO)C[C@@H]3O[C@H]1C[C@H](N)[C@H](O[C@@H]2CCCCO2)[C@H](C)O1 [Pirarubicin] + CC[C@H](NC(=O)[C@H](C)NC)C(=O)N1C[C@@H](O)C[C@H]1Cc1c(-c2[nH]c3cc(F)ccc3c2C[C@@H]2C[C@H](O)CN2C(=O)[C@H](CC)NC(=O)[C@H](C)NC)[nH]c2cc(F)ccc12
Label: label 1
//
Molecule: CSc1cccc(Nc2ncc3cc(-c4c(Cl)cccc4Cl)c(=O)n(C)c3n2)c1 + CC[C@H](NC(=O)[C@H](C)NC)C(=O)N1C[C@@H](O)C[C@H]1Cc1c(-c2[nH]c3cc(F)ccc3c2C[C@@H]2C[C@H](O)CN2C(=O)[C@H](CC)NC(=O)[C@H](C)NC)[nH]c2cc(F)ccc12
Label: label 1
//
Molecule: O=C(Nc1nnc(-c2ccco2)o1)c1cc(-c2ccccc2)nc2ccccc12 + CC[C@H](NC(=O)[C@H](C)NC)C(=O)N1C[C@@H](O)C[C@H]1Cc1c(-c2[nH]c3cc(F)ccc3c2C[C@@H]2C[C@H](O)CN2C(=O)[C@H](CC)NC(=O)[C@H](C)NC)[nH]c2cc(F)ccc12
Label: label 0
//
Molecule: CCC(C)SSc1ncc[nH]1 (stereo not drawn) + CC[C@H](NC(=O)[C@H](C)NC)C(=O)N1C[C@@H](O)C[C@H]1Cc1c(-c2[nH]c3cc(F)ccc3c2C[C@@H]2C[C@H](O)CN2C(=O)[C@H](CC)NC(=O)[C@H](C)NC)[nH]c2cc(F)ccc12
Label: label 0

For this molecule, is Excess HSA synergy score lower than -20? Cc1c(CN2CCN(S(C)(=O)=O)CC2)sc2c(N3CCOCC3)nc(-c3cnc(N)nc3)nc12 + CC[C@H](NC(=O)[C@H](C)NC)C(=O)N1C[C@@H](O)C[C@H]1Cc1c(-c2[nH]c3cc(F)ccc3c2C[C@@H]2C[C@H](O)CN2C(=O)[C@H](CC)NC(=O)[C@H](C)NC)[nH]c2cc(F)ccc12
label 0

For this molecule, is Excess HSA synergy score lower than -20? COc1cccc2c1C(=O)c1c(O)c3c(c(O)c1C2=O)C[C@@](O)(C(C)=O)C[C@@H]3O[C@H]1C[C@H](N)[C@H](O)[C@H](C)O1 [Daunorubicin] + CC[C@H](NC(=O)[C@H](C)NC)C(=O)N1C[C@@H](O)C[C@H]1Cc1c(-c2[nH]c3cc(F)ccc3c2C[C@@H]2C[C@H](O)CN2C(=O)[C@H](CC)NC(=O)[C@H](C)NC)[nH]c2cc(F)ccc12
label 1

For this molecule, is Excess HSA synergy score lower than -20? Cc1[nH]c2ccccc2c1CCNCc1ccc(/C=C/C(=O)NO)cc1 [Panobinostat] + CC[C@H](NC(=O)[C@H](C)NC)C(=O)N1C[C@@H](O)C[C@H]1Cc1c(-c2[nH]c3cc(F)ccc3c2C[C@@H]2C[C@H](O)CN2C(=O)[C@H](CC)NC(=O)[C@H](C)NC)[nH]c2cc(F)ccc12
label 1

For this molecule, is Excess HSA synergy score lower than -20? O=C(/C=C/c1ccc(CN(CCO)CCc2c[nH]c3ccccc23)cc1)NO [Dacinostat] + CC[C@H](NC(=O)[C@H](C)NC)C(=O)N1C[C@@H](O)C[C@H]1Cc1c(-c2[nH]c3cc(F)ccc3c2C[C@@H]2C[C@H](O)CN2C(=O)[C@H](CC)NC(=O)[C@H](C)NC)[nH]c2cc(F)ccc12
label 1
